System: TO-N3 (biotin conjugate)
ASSAY: pull-down binding Z-score (relative to library population); higher = stronger binding
TEST_SETTINGS: RNA library: Library-2
pull-down binding Z-score vs -0.2: at or above is Y, below is N.

Look over these answered cases.
CCCCAGGGAUGCAAAUAAGGGG [IAV_invivo_PB1_2_Motif_14+IAV_invivo_PB1_2_Motif_14]; Y
CACACACAAUCACCGUGUG [hsa-mir-3118-2_3118-3_3118-4]; N
GAGAUGUGAUCCUGCCACAUCUC [hsa-mir-1304]; N
UCACAGGGCUCAGGGAAUGUGUCUGCACCUGUGA [hsa-mir-587]; Y
CGCGCCCGGCCUAACUUUUAAGAAACGUCGGCCCGGGAGCG [hsa-mir-5095]; Y

**Query** Check this sequence for pull-down binding Z-score at or above -0.2: UGUGCCCCGUACCGGACAGG [hsa-mir-7160]
**Result** Y

**Query** Item: AUUACUUGUGUUCUAUAUAAAGUAUU [hsa-mir-92a-2]
**Result** N

**Query** Item: AAGUUCCCUCUGGCUGGAAC [hsa-mir-1249]
**Result** Y

**Query** Item: GAGUGCUAUCUAACCUUAACUUGCCUGGUUGUGAUGGUGGCAGUUUGUAUGUAAAUAAACAUGCAUUCCACACACCAGCUUUUGAUAAAAGUGCUU [DMSMaPseq_invitro_SARS-CoV-2_Motif_343]
**Result** N

Measured values drawn from the supplement of paper PMC11865577 for this set.
